# EXPERIMENTAL TARGET: full length human SIRPα v1 with a small beta-gal fragment (ED) fused to its C-terminal, expressed in K562 … (human, UniProt P78324 31-504)
# Sequence (P78324 31-504): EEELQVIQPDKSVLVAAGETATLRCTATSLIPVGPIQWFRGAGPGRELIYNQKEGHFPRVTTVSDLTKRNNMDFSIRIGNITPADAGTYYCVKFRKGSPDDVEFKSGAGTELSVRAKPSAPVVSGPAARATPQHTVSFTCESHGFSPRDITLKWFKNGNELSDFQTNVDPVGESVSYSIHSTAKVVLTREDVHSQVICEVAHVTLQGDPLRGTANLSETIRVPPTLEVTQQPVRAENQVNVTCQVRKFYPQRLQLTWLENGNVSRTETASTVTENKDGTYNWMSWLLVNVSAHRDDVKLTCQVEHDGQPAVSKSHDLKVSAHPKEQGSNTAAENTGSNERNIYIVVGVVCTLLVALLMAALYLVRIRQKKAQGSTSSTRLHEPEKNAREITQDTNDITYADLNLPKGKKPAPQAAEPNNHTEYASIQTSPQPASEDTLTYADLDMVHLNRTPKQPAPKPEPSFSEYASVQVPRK
# PROTOCOL NOTES: cell-based or functional assay
Recorded SHP-1 recruitment blocking, IC50, one value per entry.
Numbers only; they are read as nM.

| BINDER | SHP-1 recruitment blocking, IC50, nM |
| --- | --- |
| hu025.021 (antibody, V domains shown, Humanized 025; also called hu025.21) VH: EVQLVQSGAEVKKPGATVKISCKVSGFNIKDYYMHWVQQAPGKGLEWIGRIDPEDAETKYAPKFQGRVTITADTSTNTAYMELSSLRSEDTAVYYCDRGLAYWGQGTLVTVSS VL: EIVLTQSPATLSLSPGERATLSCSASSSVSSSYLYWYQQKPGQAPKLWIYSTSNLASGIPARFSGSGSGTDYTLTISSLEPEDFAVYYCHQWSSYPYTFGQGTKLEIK | 0.1 |

Query binder follows.
-- ask Report SHP-1 recruitment blocking, IC50 for 025c (antibody, V domains shown, also called chimeric antibody 025c; parental antibody of 025c) VH: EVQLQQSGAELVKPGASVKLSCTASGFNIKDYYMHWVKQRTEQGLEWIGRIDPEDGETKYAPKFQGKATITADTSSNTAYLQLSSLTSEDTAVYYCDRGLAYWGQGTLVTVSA VL: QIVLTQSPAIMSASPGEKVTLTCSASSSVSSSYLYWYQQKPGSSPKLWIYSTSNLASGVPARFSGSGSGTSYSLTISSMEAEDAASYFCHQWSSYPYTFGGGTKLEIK please.
-- reply 0.08
